- measured_on: G/T mismatch-specific thymine DNA glycosylase (Homo sapiens) (UniProt Q13569)
- Sequence (Q13569 whole entry): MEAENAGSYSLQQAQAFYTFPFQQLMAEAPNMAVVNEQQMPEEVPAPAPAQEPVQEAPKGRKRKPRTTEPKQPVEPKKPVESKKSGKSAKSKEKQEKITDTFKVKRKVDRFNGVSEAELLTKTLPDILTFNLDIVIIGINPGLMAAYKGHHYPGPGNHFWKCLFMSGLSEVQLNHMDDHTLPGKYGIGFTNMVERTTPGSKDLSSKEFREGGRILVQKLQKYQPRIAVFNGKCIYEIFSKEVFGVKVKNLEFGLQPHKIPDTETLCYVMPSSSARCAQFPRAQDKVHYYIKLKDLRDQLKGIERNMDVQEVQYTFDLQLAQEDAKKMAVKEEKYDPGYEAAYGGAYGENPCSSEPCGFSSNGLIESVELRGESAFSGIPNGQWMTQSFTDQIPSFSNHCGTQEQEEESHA
- measurement_setup: Compound Concentration 10.0 uM, Hit No;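 further: human TDG cleavage of quenched duplex DNA oligonucleotides coupled to APE1, strand release read as fluorescence at 594 nm, inhibition of TDG activity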
- Description: Inhibition of TDG by quantifying inhibition of TDG-mediated cleavage and dissociation of quenched duplex DNA oligonucleotides, measured as fluorescence at 594 nm. To generate a functional strand incision and increase turn-over this assay is coupled to APE1.
inhibition values, listed per item
Lab book: enter the figure in %, no units written.

Example entries and their recorded answers appear below.
CC(C)c1ccc(CC(=O)N2CCC[C@@H](c3cccc(OC(C)(C)C(=O)O)c3)C2)cc1    47.9
Clc1ccc(C2CC3CCC2N3)cn1 (stereo unspecified)    20.8

Record NCCc1c[nH]c2ccc(C(N)=O)cc12 , field inhibition: 8.45

Measured inhibition, Cc1onc(-c2ccccc2Cl)c1C(=O)N(C)c1ccc(Cl)cc1 : 12.4

Looking up C[C@@H](C(N)=O)[C@H](N)c1nc2ccc(C(C)(C)C)cc2[nH]1 , I found its inhibition recorded as 6.56

Recorded inhibition (molecule CSc1cccnc1N1CCN(Cc2nc3ccccc3[nH]2)CC1 ): 19.8

The measured values listed here are drawn from ChEMBL document CHEMBL5665443.
